The reported numbers originate from patent US9187525B2.

# TARGET_OF_ASSAY: T1, natriuretic peptide receptor-B (human)
# T1 chain: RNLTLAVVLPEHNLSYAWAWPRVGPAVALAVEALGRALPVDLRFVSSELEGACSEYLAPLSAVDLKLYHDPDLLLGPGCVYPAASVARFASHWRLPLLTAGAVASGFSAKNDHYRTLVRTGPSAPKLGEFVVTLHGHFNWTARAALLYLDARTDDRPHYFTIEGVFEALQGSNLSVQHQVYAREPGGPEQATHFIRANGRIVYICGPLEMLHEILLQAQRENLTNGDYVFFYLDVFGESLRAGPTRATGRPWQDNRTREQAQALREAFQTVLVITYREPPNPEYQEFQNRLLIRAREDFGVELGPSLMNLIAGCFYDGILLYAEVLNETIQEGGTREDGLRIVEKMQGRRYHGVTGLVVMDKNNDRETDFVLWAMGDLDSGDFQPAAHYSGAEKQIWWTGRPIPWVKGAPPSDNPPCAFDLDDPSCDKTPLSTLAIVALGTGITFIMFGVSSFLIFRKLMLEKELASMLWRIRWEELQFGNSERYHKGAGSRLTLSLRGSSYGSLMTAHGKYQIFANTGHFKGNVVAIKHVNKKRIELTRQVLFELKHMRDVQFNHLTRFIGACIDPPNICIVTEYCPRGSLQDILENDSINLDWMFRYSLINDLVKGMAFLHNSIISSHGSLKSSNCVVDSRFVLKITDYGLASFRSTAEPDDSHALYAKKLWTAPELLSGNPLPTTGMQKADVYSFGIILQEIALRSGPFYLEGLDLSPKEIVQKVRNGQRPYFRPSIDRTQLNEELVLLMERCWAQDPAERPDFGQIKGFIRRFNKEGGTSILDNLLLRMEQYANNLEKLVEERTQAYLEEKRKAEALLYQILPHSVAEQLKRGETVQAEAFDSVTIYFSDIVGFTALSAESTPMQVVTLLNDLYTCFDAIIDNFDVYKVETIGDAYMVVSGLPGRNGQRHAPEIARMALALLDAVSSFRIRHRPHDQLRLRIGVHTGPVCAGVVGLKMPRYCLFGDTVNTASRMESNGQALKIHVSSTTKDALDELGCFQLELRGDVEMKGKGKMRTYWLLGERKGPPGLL
# ASSAY: cell-based or functional assay
Numbered stars: 1 amine (or outer) side, 2 acyl side, 3 side chain; on linkers, the order of the positions; unused ones are H or OH. Square brackets hold non-standard residues; d marks the D form. Primed or numbered codes have the meaning given here. Ends that are not written are not given here. * marks the point of attachment. Eao = rac-1-amino-2,3-dihydro-1H-indene-1-carboxylic acid, O=C(C1(N[*:1])CCc2ccccc21)[*:2]; Pro(trans-4-NH2) = O=C([C@@H]1C[C@@H](N[*:3])CN1[*:1])[*:2]; Sni = (S)-nipecotic acid, O=C([C@H]1CCCN([*:1])C1)[*:2]; Pro(trans-4-Ph) = O=C(O)[C@@H]1C[C@@H](c2ccccc2)CN1; 5121 = 1-propyl-butyl-amine, CCCC(CCC)N*; Hyp = O=C(O)[C@@H]1C[C@@H](O)CN1; NMeF = CN[C@@H](Cc1ccccc1)C(=O)O; NMeL = CN[C@@H](CC(C)C)C(=O)O; orn(Me2) = not defined here; SH‑158 = not defined here; BB725 = not defined here; Octanoyl = CCCCCCCC(=O)*; 2137 = not defined here; Api = NC1(C(=O)O)CCNCC1; Sni″ = not defined here; dHgl = not defined here; Che = not defined here; Occ = octanoic acid
READOUT_NAME: EC50 group, cGMP in GTM-3 cells

[[record]]
binder = "Octanoyl-[Sni]F[orn(Me2)]L[Hyp][NMeL]VR[Che] (reading uncertain; also: printed as Occ-Sni-Phe-orn(Me2)-Leu-Hyp-Nml-Val-Arg-Che) [JAL-1778]"
readout_value = "≤ 5 µM"

[[record]]
binder = "Octanoyl-[dA]F[dR]L[Hyp][SH‑158]DRI-NH2 (reading uncertain; also: printed as Occ-ala-Phe-arg-Leu-Hyp-(SH-158)-Asp-Arg-Ile-NH2) [JAL-1284]"
readout_value = "≤ 1 µM"

[[record]]
binder = "Octanoyl-[dA]F[Api]L[Pro(trans-4-NH2)][NMeL]DRI-NH2 [JAL-1350]"
readout_value = "≤ 1 µM"

[[record]]
binder = "[Occ][Sni]F[Eao]L[Hyp][NMeL]DRI-NH2 [JAL-1892]"
readout_value = "≤ 5 µM"

[[record]]
binder = "[Occ]AFGL[Pro(trans-4-Ph)]LDRI-NH2 (not fully specified (residue 2); printed as Occ-ala-Phe-Gly-Leu-Eay-Leu-Asp-Arg-Ile-NH2) [JAL-0975]"
readout_value = "≤ 15 µM"

[[record]]
binder = "[Occ][Sni]F[dL]L[Pro(trans-4-NH2)](Ac)[NMeL]DRI-NH2 [JAL-1321]"
readout_value = "≤ 5 µM"

[[record]]
binder = "H-[dHgl][Sni]FLL[Hyp][NMeL]DRI-NH2 (not fully specified (residue 4); printed as H-hgl-Sni-Phe-leu-Leu-Hyp-Nml-Asp-Arg-Ile-NH2; reading uncertain) [JAL-1897]"
readout_value = "≤ 5 µM"

[[record]]
binder = "Octanoyl-AFGLKLDR-5121 (not fully specified (some residues); printed as Occ-ala-Phe-Gly-Leu-Lys-Leu-Asp-Arg-5121) [JAL-0841]"
readout_value = "≤ 15 µM"

[[record]]
binder = "[Occ][Sni″]FGLKLDRI-NH2 (reading uncertain; also: printed as Occ-Sni-Phe-Gly-Leu-Lys-Leu-Asp-Arg-Ile-NH2) [JAL-0743]"
readout_value = "≤ 5 µM"

[[record]]
binder = "Octanoyl-[Sni][NMeF][dL]L[Hyp][NMeL]DP[Che] (not fully specified; printed as Occ-Sni-Nmf-leu-Leu-Hyp-Nml-Asp-Pro-Che; reading uncertain) [JAL-1597]"
readout_value = "≤ 1 µM"

[[record]]
binder = "Octanoyl-[dA]F[dL]L[Hyp][SH‑158]DRI-NH2 (reading uncertain; also: printed as Occ-ala-Phe-leu-Leu-Hyp-(SH-158)-Asp-Arg-Ile-NH2) [JAL-1283]"
readout_value = "≤ 1 µM"

[[record]]
binder = "Octanoyl-XF[dR]L[Hyp][NMeL]DRI-NH2 (not fully specified (some residues); printed as Occ-pip-Phe-arg-Leu-Hyp-Nml-Asp-Arg-Ile-NH2) [JAL-1087]"
readout_value = "≤ 1 µM"

[[record]]
binder = "Octanoyl-X[NMeF][dR]LP[NMeL]DRI-NH2 (not fully specified (some residues); printed as Occ-pip-Nmf-arg-Leu-Pro-Nml-Asp-Arg-Ile-NH2) [JAL-1077]"
readout_value = "≤ 1 µM"

[[record]]
binder = "Octanoyl-[dA][dA]FGLKLDR[2137] (reading uncertain; also: printed as Occ-ala-ala-Phe-Gly-Leu-Lys-Leu-Asp-Arg-2137) [JAL-0748]"
readout_value = "≤ 15 µM"

[[record]]
binder = "[Occ][dA]F[dL]L[Hyp][NMeL][BB725]RI-NH2 (reading uncertain; also: printed as Occ-ala-Phe-leu-Leu-Hyp-Nml-(BB725)-Arg-Ile-NH2) [JAL-1556]"
readout_value = "≤ 1 µM"

[[record]]
binder = "Octanoyl-AAFGLKLDR[Che] (not fully specified (some residues); printed as Occ-ala-ala-Phe-Gly-Leu-Lys-Leu-Asp-Arg-Che; reading uncertain) [JAL-0797]"
readout_value = "≤ 5 µM"

[[record]]
binder = "XAFRLXXDRI (Occ-ala-Phe-arg-Leu-Hyp-Dap(Me2)-Asp-Arg-Ile-NH2) [JAL-1314]"
readout_value = "≤ 5 µM"

